- Tested on: TK-10 renal
- assayMethodText: NCI tumour cell line growth inhibition, 48 h
readoutType: TGI (µM)
Give your result in µM as a bare value.

The compound identified as O=C1/C(=C/c2ccc(Cl)cc2)N=C(c2ccccc2)N1c1nc2ccc(Sc3ccccc3)cc2[nH]1 registered its TGI at 59.6

Lab book: TGI of Cn1cc(NC(=O)c2cc(NC(=O)CCCCCCCCCC(=O)Nc3cc(C(=O)Nc4cc(C(=O)NCCC(=N)N)n(C)c4)n(C)c3)cn2C)cc1C(=O)NCCC(=N)N noted as 85.9

For COc1ccc(NC(=S)N/N=C(\c2ccccc2)c2ccccn2)cc1 the compound record lists TGI as 2.27

Lab book: TGI of NC(N)=N/N=C(\c1ccc(F)cc1)c1ccc(C(F)(F)F)cc1 noted as 13.6

Please fill in: TGI reported for COc1ccc(C(O)c2cc3c(N)c(C(=O)Nc4ccccc4)sc3nc2C)cc1 (stereo unspecified) = 49.8

* * *

Assign TGI to each entry below.
- Tested on: M14 melanoma
- assayMethodText: NCI tumour cell line growth inhibition, 48 h
Reply with just the number (in µM).

Entry under test: COC(=O)[C@]12CC[C@@H](C)[C@H](C)[C@@H]1C1=CC[C@@H]3[C@@]4(C)C[C@@H](OC(C)=O)[C@H](O)[C@@](C)(CO)[C@@H]4[C@H](O)C[C@@]3(C)[C@]1(C)CC2 . Its TGI was 22.2

Data point: CCOc1ccc(C2Oc3c(cccc3OC)C=C2[N+](=O)[O-])cc1OCC (configuration not stated) ; TGI = 7.01

Record C#CC#CC#CC#CC#CC#CC#CC#CC[C@@H]1OC[C@H](COC(=O)O[C@@H](C(=O)O[C@H]2C[C@@]3(O)[C@@H](OC(=O)c4ccccc4)[C@@H]4[C@]5(OC(C)=O)CO[C@@H]5C[C@H](O)[C@@]4(C)C(=O)[C@H](OC(C)=O)C(=C2C)C3(C)C)[C@@H](NC(=O)c2ccccc2)c2ccccc2)O1 , field TGI: 24.9

* * *

- Tested on: SK-MEL-2 melanoma
- assayMethodText: NCI tumour cell line growth inhibition, 48 h
Each entry falls in a class defined on TGI; the bands are 0 (below 10 µM), 1 (10 µM to below 30 µM), 2 (30 µM or more)

Lookup: # bin lookup: classify CN1C(=O)N(C)C2(O)c3ccccc3C(=O)C12O (stereo not given) by its TGI
Found: 2

Lookup: Hello team, could you let me know which band the following compound falls into: O=c1[nH]c(=O)n(C2CC(O)C(CO)O2)cc1/C=C/Br (stereo not given)
Found: 2

Lookup: Category of O=C1NC(N/N=C\C(O)C(O)C(O)C(O)CO)=N/C1=C\c1ccc(Cl)cc1 (stereo not given) , please.
Found: 1

Lookup: Which class is correct for the following compound? Fc1ccc(-c2ncn(C3CCNCC3)c2-c2ccnc(Oc3cccc(C(F)(F)F)c3)n2)cc1
Found: 0

Lookup: Place this compound in its band: COc1ccc2c(c1OC)OC[C@@H](C1=CC(=O)C=C(O)C1=O)C2
Found: 1

Lookup: Band for the recorded TGI of COc1cc2nccc(Oc3ccc(NC(=O)C4(C(=O)Nc5ccc(F)cc5)CC4)cc3)c2cc1OC(=O)c1ccc(N)cc1 ?
Found: 1

Lookup: Could you tell me which band COc1ccc2nc3c(n2c1)C(=O)C(=O)c1ccccc1-3 belongs to?
Found: 0

Lookup: Lab note: which band did O=S(=O)(Nc1cc(F)cc(F)c1)c1ccc(-c2cnc(C3CC3)o2)cc1 land in?
Found: 2

Lookup: Which class is correct for the following compound? Nc1nc2c3c(ncn3CC(O)CO2)n1 (stereo not given)
Found: 2

Lookup: Where would CCOC(=O)c1cc(C)n(CN(CCO)Cn2nc(C(=O)OCC)cc2C)n1 land among the classes by reported TGI?
Found: 2

Lookup: Where would CC(C)(C(=O)NCC(F)(F)C(F)(F)F)C(=O)N[C@@H]1C(=O)Nc2ccccc2-c2ccccc21 land among the classes by reported TGI?
Found: 2

Lookup: Tag the class for c1ccc(P2c3ccccc3Nc3ccccc32)cc1
Found: 2

Lookup: Which band does Cc1cccc(-n2cnc3cc(C(=O)N4CCCCC4)ccc32)c1 fall in?
Found: 2

Lookup: Textbook exercise: identify the category of the compound given here, O=C1OC(Cl)C(N=P(c2ccccc2)(c2ccccc2)c2ccccc2)=C1Cl (stereo not given) , according to its measured value.
Found: 2

Lookup: Please classify: COC(=O)[C@]12CC[C@@H](C)[C@H](C)[C@@H]1C1=CC[C@@H]3[C@@]4(C)C[C@@H](OC(C)=O)[C@H](O)[C@@](C)(CO)[C@@H]4[C@H](O)C[C@@]3(C)[C@]1(C)CC2
Found: 2

Lookup: State the band of CC(C)OP(=O)(OC(C)C)/C(F)=N/Nc1ccc([N+](=O)[O-])cc1
Found: 2

Lookup: # classify by TGI band: NC(=O)CC(N)C(N)=O (stereo not given)
Found: 2

Lookup: Please classify: COc1cc2c(cc1OCCCCCN1CCN(CCCCCOc3cc4c(cc3OC)C(=O)C3CCC[C@H]3C=N4)CC1)N=C[C@@H]1CCCC1C2=O (stereo not given in full)
Found: 0
